Please provide measured pIC50 for the entries that follow.
biological target: Apelin receptor (Homo sapiens) (UniProt P35414); assay: potency against CXCR6 with APJ panel – cell-based, beta-arrestin, DiscoveRx, uHTS hits, dose response (AID 624129); details: CXCR6 beta-arrestin (DiscoveRx) antagonist cell assay, APJ, dose range 1, mean IC50 across replicates
Please note pIC50 is a logarithmic value: minus log10 of concentration in mol/L. Answer with that number alone.

Problem: Quote pIC50 reported for `C/C(=N/NC(=O)c1ccc(C(C)(C)C)cc1)c1ccccn1` please.
Result: 5.85

Problem: Please supply the value of reported pIC50 for the item `Cc1ccc(OCCn2c(NC(=O)c3ccco3)nc3ccccc32)cc1`
Result: 4.99

Problem: Report pIC50, nothing else, for this compound: `Cc1[nH][nH]c(=O)c1C(c1c(C)[nH][nH]c1=O)c1cn(Cc2ccc(F)cc2)c2ccccc12`
Result: 4.48

Problem: Read the entry `CCO[C@@H]1OC(C(=O)N2CCN(Cc3ccccc3)CC2)=C[C@H](c2ccc(Br)cc2)[C@H]1CCCO` and write its reported pIC50.
Result: 4.71

Problem: Name the recorded pIC50 of the item `CC(C)(C)c1ccc(-n2nc(C#N)c(Cl)cc2=O)cc1` in your answer.
Result: 5.10

Problem: Please give the documented pIC50 of `O=C(NNC(=O)C12CC3CC(CC(C3)C1)C2)c1ccccn1`
Result: 5.04

Problem: Output measured pIC50 for this item: `COc1ccc(OC)c(NC(=O)c2nc(S(=O)(=O)Cc3ccccc3)ncc2Cl)c1`
Result: 4.90

Problem: Give the value of pIC50 reported for the following: C/C(=N\NC(=O)C1COc2ccccc2O1)c1ccccn1 (configuration not stated)
Result: 5.25

Problem: Give pIC50 for `On1ccccc1=S`
Result: 4.75

Problem: Consider the compound CCC1CCCCN1S(=O)(=O)c1ccc(NC(=O)c2nc(S(C)(=O)=O)ncc2Cl)cc1 (configuration not stated) and give its recorded pIC50.
Result: 5.18

* * *

Would you kindly list inhibition for each of these compounds?
molecular target: C-X-C chemokine receptor type 6 (Homo sapiens); experiment: potency against CXCR6 with APJ panel – cell-based, beta-arrestin, DiscoveRx, uHTS hits, dose response (AID 624129); conditions: CXCR6 beta-arrestin (DiscoveRx) antagonist cell assay, CXCR6, run 2, dose range 1, at 79 µM (top of the series)
Give the value, in units of %, as a plain number.

Problem: For `Cn1cnc([N+](=O)[O-])c1S(=O)(=O)Oc1ccccc1` , write its inhibition.
Result: 111

Problem: Supply inhibition value. Item: `Cn1cnc([N+](=O)[O-])c1S(=O)(=O)c1ccc(Cl)cc1`
Result: 110

Problem: In one line, give reported inhibition of the entry `CCc1ccc(NC(=O)c2nc(S(=O)(=O)Cc3ccccc3)ncc2Cl)cc1` .
Result: 111

Problem: Return inhibition for the following compound: `COc1ccc(NC(=S)NNc2ccc([N+](=O)[O-])cc2S(=O)(=O)Nc2ccc(C)cc2C)cc1`
Result: 106

Problem: Using known records, supply inhibition for `CC1=CC(C)(C)N2C(=O)C(=Nc3ccc(O)cc3)c3cccc1c32`
Result: 84

Problem: // fetch inhibition given entry `CCOc1cc(/C=C2\N=C(SCC)SC2=O)cc([N+](=O)[O-])c1OC(C)=O`
Result: 95.5

Problem: Please look at this compound and report its inhibition: `Cc1ccc(NS(=O)(=O)c2cc([N+](=O)[O-])ccc2NNC(=S)Nc2cc(C)ccc2C)c(C)c1`
Result: 114

Problem: Using known records, supply inhibition for COc1ccc(/C=C2/CCC(CN3CCOCC3)C2=O)cc1 (stereo unspecified)
Result: 112

Problem: Read the entry `Cc1ccc(P(=O)(c2ccc(C)cc2)[C@@H](NC(c2ccccc2)c2ccccc2)c2ccccc2)cc1` and write its reported inhibition.
Result: 82.4

Problem: Kindly indicate its recorded inhibition. Item: `C/C(=N\NC(=S)NCCc1ccccc1)c1ccc(Cl)cc1Cl`
Result: 39.5

Problem: Check the records and state inhibition for CC1=C(O)C(=O)C=C2C1=CC=C1C2(C)CCC2(C)C3CC(C)(C(=O)O)CCC3(C)CCC12C (stereo unspecified)
Result: 113

* * *

biological target: C-X-C chemokine receptor type 6 (Homo sapiens); experiment: potency against CXCR6 with APJ panel – cell-based, beta-arrestin, DiscoveRx, uHTS hits, dose response (AID 624129); conditions: CXCR6 beta-arrestin (DiscoveRx) antagonist cell assay, CXCR6, run 2, dose range 2
Strictly below 3 µM in IC50: Criterion met. Otherwise: Criterion not met.

Problem: Check if IC50 falls below 3 µM for `O=[N+]([O-])c1ccc(Sc2cccc3cccnc23)c([N+](=O)[O-])c1` .
Result: Criterion not met

Problem: Is IC50 of `Cc1ccc(NC(=O)C2=C(c3ccccc3)S(=O)(=O)CCS2(=O)=O)cc1` strictly below 3 µM?
Result: Criterion not met

Problem: Hello, I'm reviewing records and need to know if IC50 of COc1ccc(CN2C(=O)C(Cc3ccccc3)Nc3ncnc(N4CCN(c5ccccc5)CC4)c32)cc1 (stereo not given) is below 3 µM. Could you check?
Result: Criterion not met

Problem: Threshold test, IC50 < 3 µM: `Cc1[nH]n(-c2ccccc2)c(=S)c1C=NCCCN=Cc1c(C)[nH]n(-c2ccccc2)c1=S`
Result: Criterion met

Problem: Could you please tell me whether IC50 recorded for `COc1cc(/C=C/[N+](=O)[O-])ccc1OC(=O)c1cc2ccccc2oc1=O` is less than 3 µM?
Result: Criterion not met

* * *

Can you tell me pIC50 for the items I'm about to list?
molecular target: Apelin receptor (Homo sapiens) (UniProt P35414); experiment: potency against CXCR6 with APJ panel – cell-based, beta-arrestin, DiscoveRx, uHTS hits, dose response (AID 624129); details: CXCR6 beta-arrestin (DiscoveRx) antagonist cell assay, APJ, run 2, dose range 1
Lab note: report pIC50 as minus log10 of the concentration in molar units, number only.

Problem: Retrieve pIC50 measured for `O=C1C=CC(=O)N1c1cccc(-c2ccccc2)c1` and print it.
Result: 4.64

Problem: Report pIC50 for CCC(C)c1ccc(O)c(NC(=S)NC(=O)c2cccnc2)c1 (centres undefined)
Result: 4.84

Problem: Give the value of pIC50 reported for the following: `CC(C)c1ccc(O)c(NC(=S)NC(=O)c2cccnc2)c1`
Result: 4.98

Problem: Write down pIC50 measured for item `O=C(CSc1cccc2cccnc12)N/N=C/c1cccnc1`
Result: 5.33

Problem: Note pIC50 for the compound shown: C/C(=N\NC(=O)C1COc2ccccc2O1)c1ccccn1 (centres undefined)
Result: 5.33

Problem: Determine its reported pIC50: Cc1ccc(C(C[N+](=O)[O-])Sc2ccc(N)cc2)cc1 (centres undefined)
Result: 4.64

Problem: Query pIC50 for `COc1ccc(C[C@@H]2OC3(C=CC(=O)C=C3)O[C@H]2Cc2ccc(OC)cc2)cc1`
Result: 5.16

Problem: Fill in pIC50 for record `N#CC(C#N)=C1C=CC=CN1/C(=C\c1ccco1)C(=O)c1ccc(Cl)cc1`
Result: 4.47

Problem: Consider the compound `Cc1cccc(CSc2cccc3cccnc23)c1` and give its recorded pIC50.
Result: 5.31

Problem: Tell me measured pIC50 for `CCCCCCCCn1sccc1=O` please.
Result: 5.10

Problem: Dear colleague, please send me the reported pIC50 for `Cc1ccc(S(=O)(=O)Nc2cccc3cccnc23)cc1` when you can.
Result: 4.72

Problem: Indicate its recorded pIC50; the compound in question is `CCCC(=O)OCCNc1cc(Sc2nc3ccccc3[nH]2)c2nonc2c1[N+](=O)[O-]`
Result: 5.23

Problem: Read the entry `Oc1c(Br)cc(Br)cc1C=NCc1ccccc1` and write its reported pIC50.
Result: 4.66

Problem: Dear colleague, please send me the reported pIC50 for `Cc1cc(S(=O)(=O)c2ccc(Cl)cc2)nc(S(=O)(=O)c2ccc(Cl)cc2)c1C#N` when you can.
Result: 4.51

* * *

Kindly supply the reported pIC50 values for the records listed here.
target: C-X-C chemokine receptor type 6 (Homo sapiens) (UniProt O00574); test: potency against CXCR6 with APJ panel – cell-based, beta-arrestin, DiscoveRx, uHTS hits, dose response (AID 624129); details: CXCR6 beta-arrestin (DiscoveRx) antagonist cell assay, CXCR6, run 2, dose range 1
Sequence (O00574 whole entry, looked up): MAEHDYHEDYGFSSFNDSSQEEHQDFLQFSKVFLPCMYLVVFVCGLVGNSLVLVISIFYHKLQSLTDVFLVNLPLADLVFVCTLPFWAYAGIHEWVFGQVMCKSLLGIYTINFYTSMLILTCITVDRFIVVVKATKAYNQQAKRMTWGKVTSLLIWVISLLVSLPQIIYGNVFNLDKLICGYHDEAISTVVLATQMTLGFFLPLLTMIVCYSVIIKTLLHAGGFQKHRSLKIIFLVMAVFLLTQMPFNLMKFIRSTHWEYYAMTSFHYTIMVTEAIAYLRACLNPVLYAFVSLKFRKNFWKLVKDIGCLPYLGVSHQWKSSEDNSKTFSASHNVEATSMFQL
pIC50: −log10 of the molar value.

Problem: Quote pIC50 with test system C-X-C chemokine receptor type 6 (Homo sapiens) (UniProt O00574) for `COc1ccc(C(=O)/C=C/C(=O)N(CC(=O)NC2CCCCC2)Cc2cccs2)c(O)c1`
Result: < 4.10

Problem: For C-X-C chemokine receptor type 6 (Homo sapiens) (UniProt O00574), give the measured pIC50 of the entry `Cc1cnc(C(=O)Nc2cccc3cccnc23)cn1`
Result: < 4.10

Problem: # return pIC50 for C=C1CC(COc2ccc3c(C)c(Cl)c(=O)oc3c2)(c2ccccc2)OC1=O (stereo not drawn) , test system: C-X-C chemokine receptor type 6 (Homo sapiens) (UniProt O00574)
Result: < 4.10
